# tgt: HLA-B*0702 (Homo sapiens)
# Construct: expressed in transfected cells; host or cells: human T2-B7 cells (T2 transfected with HLA-B*0702)
# assayOverview: Measurement of peptide relative affinity to HLA-B*0702 (T2-B7 cells, ME-1 mAb staining)
# Assay type: binding
# testSettings: concentration inducing 20% of HLA-B*0702 expression relative to reference peptide CMV265-274; T2-B7 cells, 16 hours, 37° C.
metric: RA (Relative Affinity to HLA-B*0702)

>>> reportedvalue("GPRALIETS (HLA-B7 restricted native peptide) [MAGE-A I]")
"− ((−) means RA > 10)"
>>> reportedvalue("GPRALAETS (HLA-B7 restricted native peptide) [MAGE-A A]")
"− ((−) means RA > 10)"
>>> reportedvalue("GPRALVETS (HLA-B7 restricted native peptide) [MAGE-A V]")
"− ((−) means RA > 10)"
